target: UniProt:P08581
Sequence (P08581 25-1390): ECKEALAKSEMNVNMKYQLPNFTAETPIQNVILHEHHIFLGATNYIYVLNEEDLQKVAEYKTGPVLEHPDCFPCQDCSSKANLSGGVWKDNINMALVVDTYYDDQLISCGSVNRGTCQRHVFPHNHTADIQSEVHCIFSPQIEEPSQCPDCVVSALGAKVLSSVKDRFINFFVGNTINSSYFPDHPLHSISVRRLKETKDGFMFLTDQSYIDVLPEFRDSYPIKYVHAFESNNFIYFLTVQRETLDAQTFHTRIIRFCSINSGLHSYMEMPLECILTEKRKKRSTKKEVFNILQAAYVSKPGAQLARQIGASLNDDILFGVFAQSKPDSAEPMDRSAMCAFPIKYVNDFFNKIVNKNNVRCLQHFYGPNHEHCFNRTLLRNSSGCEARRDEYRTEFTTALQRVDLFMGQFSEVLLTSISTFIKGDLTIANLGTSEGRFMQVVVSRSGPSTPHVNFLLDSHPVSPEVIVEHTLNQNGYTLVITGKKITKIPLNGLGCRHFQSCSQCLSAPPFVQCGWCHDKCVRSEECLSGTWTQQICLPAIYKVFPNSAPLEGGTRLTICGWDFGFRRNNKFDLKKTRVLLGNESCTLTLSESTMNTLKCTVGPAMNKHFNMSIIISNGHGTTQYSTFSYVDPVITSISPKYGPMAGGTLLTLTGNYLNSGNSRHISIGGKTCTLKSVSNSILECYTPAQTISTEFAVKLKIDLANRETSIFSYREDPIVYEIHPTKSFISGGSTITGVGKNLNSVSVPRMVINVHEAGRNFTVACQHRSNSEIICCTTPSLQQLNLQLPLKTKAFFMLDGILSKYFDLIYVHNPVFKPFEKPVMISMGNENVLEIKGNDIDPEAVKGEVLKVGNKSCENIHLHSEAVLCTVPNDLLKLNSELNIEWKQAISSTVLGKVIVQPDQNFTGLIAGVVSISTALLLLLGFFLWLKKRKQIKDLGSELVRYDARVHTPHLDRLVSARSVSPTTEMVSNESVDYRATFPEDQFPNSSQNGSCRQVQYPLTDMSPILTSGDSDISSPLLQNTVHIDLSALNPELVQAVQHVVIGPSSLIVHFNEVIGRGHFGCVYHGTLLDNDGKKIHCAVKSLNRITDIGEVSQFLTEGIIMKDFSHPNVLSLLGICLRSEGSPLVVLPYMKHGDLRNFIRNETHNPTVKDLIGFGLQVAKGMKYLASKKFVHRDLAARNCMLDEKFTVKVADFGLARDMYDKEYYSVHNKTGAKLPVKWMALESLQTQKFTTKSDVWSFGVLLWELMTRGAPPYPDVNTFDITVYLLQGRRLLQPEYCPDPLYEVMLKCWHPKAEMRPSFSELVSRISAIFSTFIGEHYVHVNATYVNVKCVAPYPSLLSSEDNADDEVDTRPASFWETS

Molecular string | IC50
C[C@H]1CN(C(=O)CC#N)[C@]12CCN(c1ncnc3[nH]ccc13)C2 | > 1 µM

====

biological target: c-RAF (Homo sapiens, UniProt P04049)
Sequence (P04049 whole entry, species assumed): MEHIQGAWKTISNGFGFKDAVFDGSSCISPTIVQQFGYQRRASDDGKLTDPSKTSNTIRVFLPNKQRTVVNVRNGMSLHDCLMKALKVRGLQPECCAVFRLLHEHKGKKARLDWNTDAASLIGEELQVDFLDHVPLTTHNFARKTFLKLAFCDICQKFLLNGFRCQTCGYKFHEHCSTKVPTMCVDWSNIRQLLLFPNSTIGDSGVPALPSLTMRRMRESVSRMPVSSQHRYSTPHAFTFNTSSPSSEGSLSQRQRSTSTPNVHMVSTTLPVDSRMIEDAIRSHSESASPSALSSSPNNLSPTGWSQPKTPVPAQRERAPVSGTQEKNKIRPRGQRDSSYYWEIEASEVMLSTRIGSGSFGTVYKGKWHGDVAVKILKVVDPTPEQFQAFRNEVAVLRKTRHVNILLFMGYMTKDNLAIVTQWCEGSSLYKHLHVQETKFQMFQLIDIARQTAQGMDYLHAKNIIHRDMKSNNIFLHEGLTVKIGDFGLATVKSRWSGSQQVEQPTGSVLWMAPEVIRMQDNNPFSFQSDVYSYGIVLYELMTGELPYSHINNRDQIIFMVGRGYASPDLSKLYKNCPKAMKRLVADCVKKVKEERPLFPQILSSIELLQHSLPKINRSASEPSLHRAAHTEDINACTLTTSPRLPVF

Molecular string | IC50
C[C@H]1CN(C(=O)CC#N)[C@]12CCN(c1ncnc3[nH]ccc13)C2 | > 1 µM

====

biological target: JNK3 (Homo sapiens)
Sequence (P53779 whole entry, species assumed): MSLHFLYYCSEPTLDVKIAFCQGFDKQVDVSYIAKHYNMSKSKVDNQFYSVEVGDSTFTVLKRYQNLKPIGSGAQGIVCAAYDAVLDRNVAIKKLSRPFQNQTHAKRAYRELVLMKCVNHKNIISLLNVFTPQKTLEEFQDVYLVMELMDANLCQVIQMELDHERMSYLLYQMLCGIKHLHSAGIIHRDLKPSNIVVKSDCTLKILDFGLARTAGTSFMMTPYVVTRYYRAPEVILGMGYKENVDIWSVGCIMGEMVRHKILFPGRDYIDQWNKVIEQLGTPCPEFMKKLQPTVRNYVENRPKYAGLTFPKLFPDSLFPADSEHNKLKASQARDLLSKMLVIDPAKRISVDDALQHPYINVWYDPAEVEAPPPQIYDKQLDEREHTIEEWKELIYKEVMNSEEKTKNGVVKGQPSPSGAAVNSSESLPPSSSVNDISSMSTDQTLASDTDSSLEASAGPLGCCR

Molecular string | IC50
C[C@H]1CN(C(=O)CC#N)[C@]12CCN(c1ncnc3[nH]ccc13)C2 | > 1 µM

====

biological target: CDK2/cyclinA (Homo sapiens, UniProt P24941); test: KinaseProfiler selectivity: CDK2/cyclinA
pIC50: −log10 of the molar value.
Attribute measured: pIC50

Molecular string | Val
C[C@H]1CN(C(=O)CC#N)[C@]12CCN(c1ncnc3[nH]ccc13)C2 | < 6.00

Data origin, for the record: paper PMC4286029
